- TEST_TARGET: human Factor IXa (human, UniProt P00740 47-191; P00740 227-461)
- MEASUREMENT_NOTES: cell-based or functional assay
Square brackets hold non-standard residues; d marks the D form. Ends that are not written are not given here.
READOUT_TYPE: EC50 [µM], FXa generation assay

BINDER	MEAS_VALUE
SGFGMKLTCLASYCGLFQGEIG	< 0.5 µM
SKQGRAISPD[dR]RAAGKLTCLASYCWLFWTGIA (not fully specified; printed as SKQGRAISPDrRAAGKLTCLASYCWLFWTGIA; cysteine pairing not given here) [SKQGRAISPDrRAAGKLTCLASYCWLFWTGIA]	> 1 µM
SKQGRPISSD[dR]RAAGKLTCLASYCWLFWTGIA (not fully specified; printed as SKQGRPISSDrRAAGKLTCLASYCWLFWTGIA; cysteine pairing not given here) [SKQGRPISSDrRAAGKLTCLASYCWLFWTGIA]	< 0.5 µM
PRIRTVGPGSRSASGKLTCLASYCWLLWTGIA	< 0.5 µM
RRAPGKLQCLASYCWLFWTAIA	< 0.5 µM

The reported measurements were obtained from patent US20140303084A1.
